Examples of compounds with documented melting point follow.

The following compounds have reported results that may help.
Problem: Return reported melting point; argument: CCc1cc(C(=O)N2CCCCCC2C)nc2nc(-c3ccc(C(N)=O)cc3F)nn12 (stereo not drawn)
Result: 215 to 220 °C

Problem: Return reported melting point; argument: CCc1cc(C(=O)N2CCCCCC2C)nc2c(F)c(-c3ccc(C(N)=O)cc3)nn12 (stereo not drawn)
Result: 195 to 200 °C

Problem: Return reported melting point; argument: "CCc1cc(C(=O)N2CCCCC[C@H]2C)nc2cc(-c3ccc(C(N)=O)cc3)nn12"
Result: 160 to 165 °C

Problem: Return reported melting point; argument: CNc1cc(C(=O)N2CCCCCC2C)nc2cc(-c3ccc(C(N)=O)cc3F)nn12 (stereo not drawn)
Result: 179 to 181 °C

Problem: Return reported melting point; argument: CC1c2ccccc2CCN1C(=O)c1cc(N(C)C)n2nc(-c3ccc(/C=C/C(=O)O)cc3F)cc2n1 (stereo not drawn)
Result: 243 to 245 °C

Problem: Return reported melting point; argument: CCc1cc(C(=O)N2CCCCCC2C)nc2cc(-c3ccc(NC(=S)NCC4CCCO4)cc3F)nn12 (stereo not drawn)
Result: 210 to 215 °C

Problem: Return reported melting point; argument: CCc1cc(C(=O)N2CCCCCCC2C)nc2cc(-c3ccc(C(N)=O)cc3)nn12 (stereo not drawn)
Result: 170 to 175 °C

Problem: Return reported melting point; argument: CCc1cc(C(=O)N2CCCCCC2C)nc2cc(-c3ccc(NC(=S)NC4CC4)cc3F)nn12 (stereo not drawn)
Result: 220 to 222 °C

Problem: Return reported melting point; argument: C=CCC(=O)Nc1ccc(-c2cc3nc(C(=O)N4CCCCCC4C)cc(CC)n3n2)cc1 (stereo not drawn)
Result: 243 to 244 °C

Problem: Return reported melting point; argument: CCc1cc(C(=O)N2CCCCCC2C)nc2cc(-c3ccc(-c4cn(C)c(C)n4)cc3F)nn12 (stereo not drawn)
Result: 118 to 119 °C

More entries:
Problem: Return reported melting point; argument: "CNc1cc(C(=O)N2CCCCC[C@H]2C)nc2cc(-c3ccc(/C=C/C(=O)O)cc3F)nn12"
Result: 198 to 200 °C

Problem: Return reported melting point; argument: CCc1cc(C(=O)N2CCCCCC2C)nc2cc(-c3ccc(C(=O)NCCNC(C)=O)cc3F)nn12 (stereo not drawn)
Result: 174 °C

Problem: Return reported melting point; argument: "C[C@@H]1CCCCCN1C(=O)c1cc(C2CC2)n2nc(-c3ccc(N4CC[C@H](C(=O)O)C4)cc3F)cc2n1"
Result: 203.3 °C

Problem: Return reported melting point; argument: CCc1cc(C(=O)N2CCCCCC2C)nc2cc(-c3ccc(/C=C/C(N)=O)cc3F)nn12 (stereo not drawn)
Result: 140 to 145 °C

Values were extracted from patent US11084826B2.
